target: T1, LILRB2 chimeric receptor on LILRB2 reporter cells (extracellular domain of LILRB2 fused with … (UniProt Q8N423 22-460)); assay: flow cytometry, LILRB2 reporter cells
T1 construct: extracellular domain;domain: transmembrane/intracellular domains; associates with DAP12; also called LILRB2-expressing reporter cells
EXPERIMENTAL READOUT: % of cells anti-hIgG APC+ (%)
Numbers only, in %.

B2-30 (antibody, human IgG1, V domains shown, also called B2-30_HC; B2-30_LC) VH: QVQLVESGGGLVQPGGSLRLSCAASGFTFSSYDMHWVRQATGKGLEWVSAIGTAGDTYYPGSVKGRFTISRENAKNSLYLQMNSLRAGDTAVYYCARAKEYCSGGSCQDAFDIWGQGTMVSVSS VL: QSPSSLSASVGDRVTITCRASQSIRTYLNWYQQKPGKDPELLIYAATSLQSGVPSRFTGSGSGTDFTLTISSLQPEDFATYYCQQSYSAPVFTFGQGTKLEIK ... 4.92

Now consider a different binder.
INPUT: Input B2-14 (antibody, V domains shown, also called B2-14_HC; B2-14_LC) VH: QVQLVQSGAEVKKPGSSVKVSCKASGGTFSSYAISWVRQAPGQGLEWMGGIIPIFGTANYAQKFQGRVTITADESTSTAYMELSSLRSEDTAVYYCARASMVETYFDYWGQGTMVTVSS VL: QSVLTQPRSVSGSPGQSVTISCTGTSSDVGGYNYVSWYQQHPGKAPKLMISEVSKRPSGVPDRFSGSKSGNTASLTVSGLQAEDEADYYCSSYAGGYTPYVFGTGTKVTVL , output reported % of cells anti-hIgG APC+.
OUTPUT: 3.74
